Target: purified bovine lung sGC (Bos taurus, UniProt P16068+P19687)
Construct: screened at 100 μM against purified bovine lung sGC; purchased Enzo lifesciences ALX-202-039-C005; host or cells: bovine lung
Sequence (P19687 whole entry): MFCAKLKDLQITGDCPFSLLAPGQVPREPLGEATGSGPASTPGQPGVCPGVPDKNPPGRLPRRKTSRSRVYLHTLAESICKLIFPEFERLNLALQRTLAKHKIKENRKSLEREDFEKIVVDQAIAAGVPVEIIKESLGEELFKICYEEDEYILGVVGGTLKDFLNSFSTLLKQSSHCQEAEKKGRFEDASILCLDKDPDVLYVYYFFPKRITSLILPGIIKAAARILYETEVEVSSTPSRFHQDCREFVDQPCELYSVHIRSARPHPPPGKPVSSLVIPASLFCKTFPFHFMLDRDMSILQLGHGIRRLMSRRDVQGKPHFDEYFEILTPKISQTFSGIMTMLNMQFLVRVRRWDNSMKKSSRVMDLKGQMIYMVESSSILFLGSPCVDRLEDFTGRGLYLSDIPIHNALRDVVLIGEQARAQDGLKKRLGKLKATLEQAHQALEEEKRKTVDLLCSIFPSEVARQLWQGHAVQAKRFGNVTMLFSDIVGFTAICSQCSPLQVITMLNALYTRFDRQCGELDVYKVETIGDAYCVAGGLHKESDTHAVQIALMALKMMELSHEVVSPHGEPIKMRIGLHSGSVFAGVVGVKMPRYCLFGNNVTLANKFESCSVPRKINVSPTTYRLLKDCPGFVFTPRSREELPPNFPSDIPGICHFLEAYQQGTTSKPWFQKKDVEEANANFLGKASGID
Sequence (P16068 whole entry): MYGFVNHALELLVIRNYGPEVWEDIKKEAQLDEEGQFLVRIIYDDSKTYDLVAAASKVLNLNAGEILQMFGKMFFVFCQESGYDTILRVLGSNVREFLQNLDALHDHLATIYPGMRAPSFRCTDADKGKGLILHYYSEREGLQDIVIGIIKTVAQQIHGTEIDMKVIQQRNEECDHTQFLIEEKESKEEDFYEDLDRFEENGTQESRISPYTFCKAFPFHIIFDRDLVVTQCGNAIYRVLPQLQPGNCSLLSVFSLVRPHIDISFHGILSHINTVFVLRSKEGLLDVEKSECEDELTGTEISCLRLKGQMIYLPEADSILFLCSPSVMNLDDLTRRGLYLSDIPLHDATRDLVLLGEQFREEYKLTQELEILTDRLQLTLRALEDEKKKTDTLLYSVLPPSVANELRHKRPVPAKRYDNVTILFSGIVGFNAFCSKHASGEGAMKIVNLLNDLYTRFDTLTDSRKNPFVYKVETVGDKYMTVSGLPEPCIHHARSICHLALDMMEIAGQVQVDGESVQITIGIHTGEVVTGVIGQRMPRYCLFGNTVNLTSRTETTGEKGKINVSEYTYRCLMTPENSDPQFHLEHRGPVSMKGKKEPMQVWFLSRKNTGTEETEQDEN
Experiment: Soluble guanylate cyclase activity assay (cGMP radioimmunoassay)
Type: biochemical
Settings: GC activator cinaciguat 20 nM, no NO; read-out: IC50 (μM) ± SE
Experimental: Virtual screening was performed by similarity searches using MACCS fingerprints at 85% and 75% Tanimoto of commercial libraries and the selected compounds were screened at 100 μM against purified bovine lung sGC using diethylamine NONOate (30 nM) as the NO donor. Enzyme activity was determined by measuring cGMP production using a standard cGMP [^3H] radioimmunoassay.[21,22] […]
assay-endpoint: IC50 (µM)
Entry rule: numbers only, all in µM.

What does the data say about its IC50? Entry: O=[N+]([O-])c1ccc2nc(Nc3ccc(O)cc3)c(Nc3ccc(O)cc3)nc2c1
25

Recorded values, source paper PMC4558462.
